The entries below come with measured growth inhibition values attached.
- measurement.description: S. cerevisiae growth inhibition in restrictive medium, OD615, pilot screen, restrictive growth control, yeast lifespan reduction project (AID 706);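 also: modified DeaD lifespan yeast strain shifted to restrictive glucose medium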
- measurement.parameters: OD615, 48 h, at 10 µM, stronger effect = higher value
Numeric only. Scale: %

Some compounds with recorded growth inhibition:
compound: CCN1C(=O)c2ccccc2S(=O)c2ccc(C(=O)NC3CC3)cc21 (stereo not given)
growth inhibition [%]: 1.4
//
compound: O=C(Nc1nc2c(s1)CCCC2)c1cccnc1
growth inhibition [%]: -5.07
//
compound: COc1ccc(N2CCN(S(=O)(=O)c3ccc(OC)cc3)CC2)cc1
growth inhibition [%]: 3.09

**Q:** Recorded growth inhibition of CN(C)c1ccc(NC(=O)Cn2cc3c(n2)CCCC3)cc1 , please.
**A:** 13.9

**Q:** Next compound up: O=C(Nc1ccccc1-c1nc2ccccc2s1)c1ccco1
**A:** -20.9

###

Parameter: viability increase. Scope: all listed entries.
- measurement.description: doxorubicin toxicity protection in MRP-1 cells – H69AR cells, CellTiter-Glo, duplicate, MRP-1 activator project, pilot screen (AID 807);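 also: compound pretreatment 18-22 h then 72 h combined with doxorubicin; 0% = doxorubicin alone and 100% = vehicle without doxorubicin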
- measurement.parameters: H69AR viability with doxorubicin, CellTiter-Glo luminescence; at 10 µM; stronger effect = higher value
Expressed in %, but write only the number.

Guide cases for viability increase, answers given:
structure.smiles.string: COc1cc(-c2nnc(COc3ccc4cc(Br)ccc4c3)o2)cc(OC)c1OC
unit.descriptor: %
test.result: 0.27
--
structure.smiles.string: Oc1ccc(Cl)cc1-c1cc(-c2ccccc2)n[nH]1
unit.descriptor: %
test.result: -7.82

Here's the next entry for you.
**Q:** Given the entry O=c1[nH]c2ccc(Br)cc2c(-c2ccccc2)c1N1CCOCC1 , report its measured viability increase.
**A:** -3.63

###

- measurement.description: RAM pathway blockade in budding yeast – dse1pr::URA3 reporter, 5-FOA selection, pilot screen (AID 869);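 also: 0% = DMSO wells with no growth and 100% = 10 µM 1-NA-PP1 with full growth; RAM network block rescues cells from 5-FOA so hits raise OD615 growth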
- measurement.parameters: S. cerevisiae dse1pr::URA3 5-FOA growth, OD615, 2 d; at 10 µM; stronger effect = higher value; strain carries analog-sensitive mutant Cbk1 kinase
Below, each of the compounds is paired with its reported inhibition value.
Supply the numeric figure in %, leaving out any unit text.

compound: O=C(c1ccc(CN2CCc3ccccc3C2)cc1)N1CCCCC1
unit.descriptor: %
inhibition: 3.59
--
compound: O=C(Nc1ccc2c(c1)OCCO2)NC1CCCCC1
unit.descriptor: %
inhibition: 1.55

Note: attention shifts to another entry.
**Q:** Endpoint output: inhibition of COc1ccccc1NC1C=CS(=O)(=O)C1 (stereo not drawn) . Value?
**A:** 0.335

###

// reported inhibition for each item listed
- measurement.description: RAM pathway blockade in budding yeast – dse1pr::URA3 reporter, 5-FOA selection, pilot screen (AID 869);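 also: 0% = DMSO wells with no growth and 100% = 10 µM 1-NA-PP1 with full growth; RAM network block rescues cells from 5-FOA so hits raise OD615 growth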
- measurement.parameters: S. cerevisiae dse1pr::URA3 5-FOA growth, OD615, 2 d; at 10 µM; stronger effect = higher value; strain carries analog-sensitive mutant Cbk1 kinase
Reply with just the number (in %).

compound: Cc1ccc2oc(=O)c3cnn(CC(=O)N4CCCc5ccccc54)c3c2c1
recorded.metric: inhibition
test.result: 3.85

compound: CCOC(=O)N1CCC(N2C(=O)c3ccccc3C2Nc2cc(OC)c(OC)c(OC)c2)CC1 (stereo not drawn)
recorded.metric: inhibition
test.result: 0.24

Please look at the following compound next.
**Q:** For Cc1cccc(N2CCN(C(=O)c3cc4ccccc4oc3=O)CC2)c1C , what is its reported inhibition?
**A:** 0.78

###

- measurement.description: S. cerevisiae growth inhibition in permissive medium (OD615), pilot counter-assay for S. cerevisiae lifespan shortening project, permissive growth control (AID 705)
- measurement.parameters: OD615, 24 h, at 10 µM, stronger effect = higher value
Reported growth inhibition values for a set of molecules
Provide the reading as a plain figure in %.

Recorded growth inhibition, per entry:
molecule: Cc1cc(NC(=O)CSc2c3c(nc4ccccc24)CCC3)no1
unit.descriptor: %
test.result: -4.17

molecule: Cc1ccc(-c2noc(CN3C(C)CCCC3C)n2)cc1 (stereo unspecified)
unit.descriptor: %
test.result: -3.56

molecule: COc1ccc(C2CC(c3ccc(Cl)cc3Cl)n3nc(N)nc3N2)cc1 (stereo unspecified)
unit.descriptor: %
test.result: 7.35

**Q:** May I ask what growth inhibition has been recorded for Cc1noc(NS(=O)(=O)c2ccc(N3Cc4ccccc4C3=O)cc2)c1C ?
**A:** -3.04

**Q:** Input CN1CCc2c(sc3c2C(=O)NC(c2cccc(OC(=O)c4cccs4)c2)N3)C1 (stereo unspecified)
**A:** 8.64

**Q:** And the next one, O=C1C(=C(O)c2ccccc2)C(=O)c2ccccc21 ?
**A:** -20.4

**Q:** // same read-out, input: COc1ccc(N(CC(=O)Nc2ccc3c(c2)OCO3)S(=O)(=O)c2ccccc2)c(OC)c1
**A:** -7.79

**Q:** What would you report for Cc1cccc(OCc2nc(C#N)c(NCCN(C)C)o2)c1 ?
**A:** -4.31

**Q:** Please give the result for COCCNC(=O)CN1C(=O)CSc2ncccc21 too.
**A:** 2.19

**Q:** Likewise for O=C(CSc1ncnc2c1oc1ccccc12)Nc1cccc(C(F)(F)F)c1 ?
**A:** -12.2

**Q:** Also, CC(C)=C(NC(=O)c1ccccc1)C(=O)NCCCC(=O)O please.
**A:** -7.54

###

- measurement.description: reduced viability of SK-BR-3 breast cancer cells – cell-based, 24 h, human, pilot screen (AID 572);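 also: compound exposure lasted between 18 and 24 h rather than exactly 24 h; 100% = carrier-treated control wells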
- measurement.parameters: SK-BR-3 viability, CellTiter-Glo luminescence, at 10 µM, stronger effect = lower value
Each entry below carries its reported viability.
Please state the figure in %; there is no need to write the unit.

compound: Cc1nc2ccccn2c1/C(O)=C1\C(=O)C(=O)N(CCCN(C)C)C1c1ccc(F)cc1 (stereo unspecified)
viability / %: 89

compound: CCCNC(=O)C1CCN(S(=O)(=O)c2ccc3nc4c(c(C(=O)O)c3c2)CCCCC4)CC1
viability / %: 99

compound: CCOc1ccc(NC(=O)CSc2nnc(COc3c(C)cccc3C)o2)cc1
viability / %: 95

**Q:** Consider the compound COC(=O)CCC(=O)Nc1ccc(OC)cc1 and give its measured viability.
**A:** 104

**Q:** Also O=C(C1CCN(S(=O)(=O)c2cccc3cccnc23)CC1)N1CCN(C2CCCCC2)CC1 , if possible.
**A:** 102

**Q:** Same for O=C(CCC(=O)OCC(=O)c1ccccc1)NC1CCCCC1
**A:** 68

**Q:** Cool, now CC1(C)Cc2ccccc2C(N)=C1C#N
**A:** 93.5

**Q:** Subsequent entry: Cc1c(NC(=O)c2ccc(CN3CCc4ccccc4C3)cc2)c(=O)n(-c2ccccc2)n1C
**A:** 95

###

- measurement.description: growth suppression of yeast trafficking mutant, preliminary HTS, modulators of trafficking downstream of Golgi apparatus project, 1536-format plate, OD 615 nm (AID 637)
- measurement.parameters: yeast transport mutant growth, absorbance 615 nm, 18 h; stronger effect = higher value
Measured inhibition of individual entries
Respond with the bare value in %.

Completed entries (count: 8):
compound: Cn1c(=O)c2c(nc(SCCCC#N)n2Cc2c(F)cccc2Cl)n(C)c1=O
inhibition / %: 1.17
--
compound: CCOc1ccccc1C1CC(c2ccc(Br)cc2)Nc2nc(N)nn21 (stereo unspecified)
inhibition / %: 0.16
--
compound: COc1ccc(-c2nc3c(n2O)CCC/C3=N\O)cc1
inhibition / %: 0.33
--
compound: CCOc1ccc(N2CC(C(=O)Nc3ccccc3OC)CC2=O)cc1 (stereo unspecified)
inhibition / %: -3
--
compound: COc1cccc(C2CC(c3c(Cl)cccc3Cl)n3nc(N)nc3N2)c1 (stereo unspecified)
inhibition / %: -0.98
--
compound: O=C(Cn1ncc2c1-c1ccccc1OC2)N1CCc2ccccc21
inhibition / %: -5.33
--
compound: CCOC(=O)c1nc2sc3c(c2c(=O)[nH]1)CCCC3
inhibition / %: -16
--
compound: CCCCC(=O)NCCc1cc2c(C)ccc(C)c2[nH]c1=O
inhibition / %: 1.67

**Q:** inhibition for CN1CCC(NC(=O)c2cccs2)CC1 ?
**A:** 7.5

**Q:** Okay, and Cc1ccc(C)c(C(=O)CC2(O)C(=O)N(C)c3ccccc32)c1 (stereo unspecified) ?
**A:** -1.5

**Q:** // same read-out, input: Cn1cc(C2NC(=O)c3c(sc4c3CCCC4)N2)c2ccccc21 (stereo unspecified)
**A:** 5.17

###

- measurement.description: viability of PTEN-null HCT116 cells – cell-based, HCT116 clonal line, CellTiter-Glo, pilot screen (AID 824);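 also: 0% = 20 µM Hyamine control and 100% = vehicle cell control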
- measurement.parameters: HCT116 PTEN-deleted viability, 60 h, at 10 µM
Results filed as inconclusive are left out. Active and inactive are the calls of the source.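 How the source made its calls: active means viability at or below 27.92% in each of two runs, the all-compound median minus 4 SD; inconclusive means no clear call, values can overlap the other calls; inactive means the rest.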
# valid calls are t = active, f = inactive; nothing else

Worked examples follow.
molecule: Cc1cc(C)c(C(=O)Nc2ccc(S(=O)(=O)Nc3onc(C)c3C)cc2)c(C)c1
group.label: f
//
molecule: Cc1ccc2oc(=O)c3cnn(CC(=O)N4CCCCC4C)c3c2c1 (stereo not drawn)
group.label: f
//
molecule: COC(=O)c1oc2ccc(Br)cc2c1NC(C)=O
group.label: f
//
molecule: Cc1ccn2cc(-c3ccc(S(=O)(=O)N4CCOCC4)cc3)nc2c1
group.label: f
//
molecule: CC(=O)OC1c2ccccc2C(=O)N1Cc1ccccc1Cl (stereo not drawn)
group.label: f

**Q:** Hi, do you know how COc1c(C(=O)Nc2c(C)n(C)n(-c3ccccc3)c2=O)ccc2ccccc12 came out in this test?
**A:** f

**Q:** What do you get for Cc1ccnc(NC(=O)C2CCCN(S(=O)(=O)c3cnc[nH]3)C2)c1 (stereo not drawn) ?
**A:** f

**Q:** Proceed to Cc1cc(Nc2cccc(Cl)c2)n2ncnc2n1
**A:** f

**Q:** Try Cc1nnc(SCCn2c(N3CCCC(C)C3)nc3c2c(=O)n(C)c(=O)n3C)s1 (stereo not drawn) next.
**A:** f

**Q:** Here is the next molecule: COc1ccc(N2CCN(C(c3ccccc3)c3sc4nc(C)nn4c3O)CC2)cc1 (stereo not drawn)
**A:** f
